Tested on: Plasmodium berghei
Test: Antimalarial activity against Plasmodium berghei KBG 173 infected in ICR/HA Swiss mouse assessed as increase in mean survival time at 640 mg/kg, sc administered 72 hrs post infection
Type: functional
Settings: route subcutaneous
log10 MST listing for selected compounds.
Transform log10 | Measure MST | Unit days

Answered cases to consult:
>>> df
                          compoundstructure  outcomemeasure  measuredresult
0      COc1cccc(CNC(=S)N/N=C(\C)c2ccccn2)c1       log10 MST            0.77
1         C/C(=N\NC(=S)NCCc1ccccc1)c1ccccn1       log10 MST            0.94
2          C/C(=N\NC(=S)NCc1cccnc1)c1ccccn1       log10 MST           -0.22
3    C/C(=N\NC(=S)Nc1ccc(C(C)C)cc1)c1ccccn1       log10 MST            0.74
4  C/C(=N\NC(=S)NCc1ccc(Cl)c(Cl)c1)c1ccccn1       log10 MST           -1.00
5          C/C(=N\NC(=S)NCc1ccccn1)c1ccccn1       log10 MST           -0.05
6     C/C(=N\NC(=S)Nc1cc(Cl)ccc1Cl)c1ccccn1       log10 MST           -1.00
7         C/C(=N\NC(=S)Nc1ccccc1Cl)c1ccccn1       log10 MST            0.91
8  C/C(=N\NC(=S)Nc1ccc([N+](=O)[O-])cc1)c1ccccn1       log10 MST           -0.30
9  C/C(=N\NC(=S)NC(c1ccccc1)(c1ccccc1)c1ccccc1)c1ccccn1       log10 MST           -1.00

### Prompt Using Plasmodium berghei as the test system, report measured log10 MST of C/C(=N\NC(=S)NCc1ccc(Cl)cc1Cl)c1ccccn1 .
### Response 0.30

### Prompt Using Plasmodium berghei as the test system, report measured log10 MST of C/C(=N\NC(=S)Nc1c2ccccc2nc2ccccc12)c1ccccn1 .
### Response -0.30
